Value source: paper PMC7305236

Can you tell me activation for the items I'm about to list?
Target: XCR1 (Homo sapiens)
Construct: expressed in transfected cells
Sequence (P46094 1-333): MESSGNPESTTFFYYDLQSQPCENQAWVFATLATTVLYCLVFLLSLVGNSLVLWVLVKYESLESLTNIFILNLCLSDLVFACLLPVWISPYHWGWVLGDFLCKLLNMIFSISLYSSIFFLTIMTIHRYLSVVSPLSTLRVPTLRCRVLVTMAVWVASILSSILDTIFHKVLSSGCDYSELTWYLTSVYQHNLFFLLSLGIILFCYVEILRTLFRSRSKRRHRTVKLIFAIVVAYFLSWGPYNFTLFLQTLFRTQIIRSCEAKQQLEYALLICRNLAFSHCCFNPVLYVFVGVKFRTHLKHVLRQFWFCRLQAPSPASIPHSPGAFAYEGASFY
Experiment: Figure S2a opioid peptide screen on chemokine receptors
Format: cell-based
Parameters: dose or concentration left out as unconfirmed
Details: replicate 1, read-out: XCR1 activity, ctrl+ = 100
Starred links: 1 amine or outer side, 2 acyl side, 3 side chain; linkers in the order of their positions; H or OH if unused. Non-standard residues stand in square brackets, D forms with d. Residues, ends and D or L forms follow the SMILES beside them. X1 = N[C@@H](Cc1ccccc1)CN(CC(=O)[*:2])[*:1]
# value in %; strip the unit string

Return activation (reported value) for this molecule: NC(=O)[C@H](Cc1ccccc1)NC(=O)[C@H](Cc1c[nH]c2ccccc12)NC(=O)[C@@H]1CCCN1C(=O)[C@@H](N)Cc1ccc(O)cc1 [Endomorphin-1]
4.23

Provide only the value of recorded activation for CC[C@H](C)[C@H](NC(=O)[C@H](CCCNC(=N)N)NC(=O)[C@H](CCCNC(=N)N)NC(=O)[C@H](CC(C)C)NC(=O)[C@H](Cc1ccccc1)NC(=O)CNC(=O)CN)C(=O)N[C@@H](CCCNC(=N)N)C(=O)N1CCC[C@H]1C(=O)N[C@@H](CCCCN)C(=O)N[C@@H](CC(C)C)C(=O)N[C@@H](CCCCN)C(=O)N[C@@H](Cc1c[nH]c2ccccc12)C(=O)N[C@@H](CC(=O)O)C(=O)N[C@@H](CC(N)=O)C(=O)N[C@@H](CCC(N)=O)C(=O)O [Dynorphin 2-17]
3.87

Identify activation associated with the molecule C[C@H](NC(=O)CNC(=O)[C@@H](NC(=O)[C@H](Cc1ccccc1)NC(=O)CNC(=O)CNC[C@@H](N)Cc1ccccc1)[C@@H](C)O)C(=O)N[C@@H](CCCNC(=N)N)C(=O)N[C@@H](CCCCN)C(=O)N[C@@H](CO)C(=O)N[C@@H](C)C(=O)N[C@@H](CCCNC(=N)N)C(=O)N[C@@H](CCCCN)C(N)=O [FG Nociceptin 1-13] (H-[X1]GFTGARKSARK-NH2)
0.7

Name the recorded activation of the item CC[C@H](C)[C@H](NC(=O)[C@H](CCCNC(=N)N)NC(=O)[C@H](CCCNC(=N)N)NC(=O)[C@H](CC(C)C)NC(=O)[C@H](Cc1ccccc1)NC(=O)CNC(=O)CNC(=O)[C@@H](N)Cc1ccc(O)cc1)C(=O)N[C@@H](CCCNC(=N)N)C(=O)N1CCC[C@H]1C(=O)N[C@@H](CCCCN)C(=O)N[C@@H](CC(C)C)C(=O)N[C@@H](CCCCN)C(=O)N[C@@H](Cc1c[nH]c2ccccc12)C(=O)N[C@@H](CC(=O)O)C(=O)N[C@@H](CC(N)=O)C(=O)N[C@@H](CCC(N)=O)C(=O)O [Dynorphin A] in your answer.
4.69

Write down activation measured for item CC(C)C[C@H](NC(=O)[C@H](Cc1ccccc1)NC(=O)CNC(=O)CNC(=O)[C@@H](N)Cc1ccc(O)cc1)C(=O)N[C@@H](CCCN=C(N)N)C(=O)N[C@@H](CCCN=C(N)N)C(=O)N[C@@H](CCC(N)=O)C(=O)N[C@@H](Cc1ccccc1)C(=O)N[C@@H](CCCCN)C(=O)N[C@H](C(=O)N[C@H](C(=O)N[C@H](C(=O)O)[C@@H](C)O)C(C)C)C(C)C [Dynorphin B]
-1.79

Fill in activation for record CC[C@H](C)[C@H](NC(=O)[C@H](CCCNC(=N)N)NC(=O)[C@H](CCCNC(=N)N)NC(=O)[C@H](CC(C)C)NC(=O)[C@H](Cc1ccccc1)NC(=O)CNC(=O)CNC(=O)[C@@H](N)Cc1ccc(O)cc1)C(=O)N[C@@H](CCCNC(=N)N)C(=O)N1CCC[C@H]1C(=O)N[C@@H](CCCCN)C(=O)N[C@@H](CC(C)C)C(=O)N[C@@H](CCCCN)C(=O)O [Dynorphin 1-13]
-1.76

Fill in reported activation for this entry: CC(C)C[C@H](NC(=O)[C@H](CCCCN)NC(=O)[C@H](CCCN=C(N)N)NC(=O)[C@H](C)NC(=O)[C@H](CO)NC(=O)[C@H](CCCCN)NC(=O)[C@H](CCCN=C(N)N)NC(=O)[C@H](C)NC(=O)CNC(=O)[C@@H](NC(=O)[C@H](Cc1ccccc1)NC(=O)CNC(=O)CNC(=O)[C@@H](N)Cc1ccccc1)[C@@H](C)O)C(=O)N[C@@H](C)C(=O)N[C@@H](CC(N)=O)C(=O)N[C@@H](CCC(N)=O)C(=O)O [Nociceptin]
1.08

---

For each record, write down the corresponding activation.
Target: CCR6 (Homo sapiens, UniProt P51684)
Construct: expressed in transfected cells
Sequence (P51684 1-374): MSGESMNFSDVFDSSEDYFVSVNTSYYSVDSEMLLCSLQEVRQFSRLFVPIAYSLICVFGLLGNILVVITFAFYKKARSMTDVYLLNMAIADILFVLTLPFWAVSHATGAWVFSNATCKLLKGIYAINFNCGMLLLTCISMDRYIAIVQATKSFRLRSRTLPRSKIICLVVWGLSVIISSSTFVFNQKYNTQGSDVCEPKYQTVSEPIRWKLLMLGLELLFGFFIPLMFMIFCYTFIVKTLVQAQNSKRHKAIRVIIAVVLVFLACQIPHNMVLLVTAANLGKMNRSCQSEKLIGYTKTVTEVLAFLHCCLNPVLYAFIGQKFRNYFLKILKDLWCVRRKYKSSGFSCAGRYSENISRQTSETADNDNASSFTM
Experiment: Figure S2a opioid peptide screen on chemokine receptors
Assay type: cell-based
Set-up: dose or concentration left out as unconfirmed
Conditions: replicate 1, read-out: CCR6 activity, ctrl+ = 100
Starred links: 1 amine or outer side, 2 acyl side, 3 side chain; linkers in the order of their positions; H or OH if unused. Non-standard residues stand in square brackets, D forms with d. Residues, ends and D or L forms follow the SMILES beside them. X1 = N[C@@H](Cc1ccccc1)CN(CC(=O)[*:2])[*:1]
Provide the reading as a plain figure in %.

Give the value of activation reported for the following: C[C@H](NC(=O)CNC(=O)[C@@H](NC(=O)[C@H](Cc1ccccc1)NC(=O)CNC(=O)CNC[C@@H](N)Cc1ccccc1)[C@@H](C)O)C(=O)N[C@@H](CCCNC(=N)N)C(=O)N[C@@H](CCCCN)C(=O)N[C@@H](CO)C(=O)N[C@@H](C)C(=O)N[C@@H](CCCNC(=N)N)C(=O)N[C@@H](CCCCN)C(N)=O [FG Nociceptin 1-13] (H-[X1]GFTGARKSARK-NH2)
0.145

Consider the compound CC[C@H](C)[C@H](NC(=O)[C@H](CCCNC(=N)N)NC(=O)[C@H](CCCNC(=N)N)NC(=O)[C@H](CC(C)C)NC(=O)[C@H](Cc1ccccc1)NC(=O)CNC(=O)CNC(=O)[C@@H](N)Cc1ccc(O)cc1)C(=O)N[C@@H](CCCNC(=N)N)C(=O)N1CCC[C@H]1C(=O)N[C@@H](CCCCN)C(=O)N[C@@H](CC(C)C)C(=O)N[C@@H](CCCCN)C(=O)N[C@@H](Cc1c[nH]c2ccccc12)C(=O)N[C@@H](CC(=O)O)C(=O)N[C@@H](CC(N)=O)C(=O)N[C@@H](CCC(N)=O)C(=O)O [Dynorphin A] . State its measured activation.
-2.27

Entry NC(=O)[C@H](Cc1ccccc1)NC(=O)[C@H](Cc1c[nH]c2ccccc12)NC(=O)[C@@H]1CCCN1C(=O)[C@@H](N)Cc1ccc(O)cc1 [Endomorphin-1] needs its activation filled in; supply it.
0.653

---

Kindly state activation for each of the entries shown.
Target: CCR5 (Homo sapiens)
Construct: expressed in transfected cells
Sequence (P51681 whole entry): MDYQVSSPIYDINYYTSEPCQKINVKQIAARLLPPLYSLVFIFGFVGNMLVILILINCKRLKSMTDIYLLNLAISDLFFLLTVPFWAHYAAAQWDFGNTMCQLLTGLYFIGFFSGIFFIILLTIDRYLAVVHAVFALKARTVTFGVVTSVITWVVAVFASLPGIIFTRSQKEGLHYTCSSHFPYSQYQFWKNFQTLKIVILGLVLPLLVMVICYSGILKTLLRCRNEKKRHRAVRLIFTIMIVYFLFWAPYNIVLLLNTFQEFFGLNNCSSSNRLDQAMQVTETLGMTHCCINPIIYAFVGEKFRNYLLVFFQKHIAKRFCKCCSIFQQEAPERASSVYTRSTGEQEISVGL
Experiment: Figure S2a opioid peptide screen on chemokine receptors
Assay type: cell-based
Design: dose or concentration left out as unconfirmed
Conditions: replicate 1, read-out: CCR5 activity, ctrl+ = 100
Starred links: 1 amine or outer side, 2 acyl side, 3 side chain; linkers in the order of their positions; H or OH if unused. Non-standard residues stand in square brackets, D forms with d. Residues, ends and D or L forms follow the SMILES beside them. X1 = N[C@@H](Cc1ccccc1)CN(CC(=O)[*:2])[*:1]
Answer in %, number only, no unit symbol.

Provide activation, recorded with CCR5 (Homo sapiens), of `C[C@H](NC(=O)CNC(=O)[C@@H](NC(=O)[C@H](Cc1ccccc1)NC(=O)CNC(=O)CNC(=O)[C@@H](N)Cc1ccccc1)[C@@H](C)O)C(=O)N[C@@H](CCCNC(=N)N)C(=O)N[C@@H](CCCCN)C(=O)N[C@@H](CO)C(=O)N[C@@H](C)C(=O)N[C@@H](CCCNC(=N)N)C(=O)N[C@@H](CCCCN)C(N)=O`
-0.291

State measured activation of the compound `CC[C@H](C)[C@H](NC(=O)[C@H](CCCNC(=N)N)NC(=O)[C@H](CCCNC(=N)N)NC(=O)[C@H](CC(C)C)NC(=O)[C@H](Cc1ccccc1)NC(=O)CNC(=O)CN)C(=O)N[C@@H](CCCNC(=N)N)C(=O)N1CCC[C@H]1C(=O)N[C@@H](CCCCN)C(=O)N[C@@H](CC(C)C)C(=O)N[C@@H](CCCCN)C(=O)N[C@@H](Cc1c[nH]c2ccccc12)C(=O)N[C@@H](CC(=O)O)C(=O)N[C@@H](CC(N)=O)C(=O)N[C@@H](CCC(N)=O)C(=O)O` with CCR5 (Homo sapiens).
1.32

Give CCR5 (Homo sapiens) activation for the following compound: `CC[C@H](C)[C@H](NC(=O)[C@H](CCCNC(=N)N)NC(=O)[C@H](CCCNC(=N)N)NC(=O)[C@H](CC(C)C)NC(=O)[C@H](Cc1ccccc1)NC(=O)CNC(=O)CNC(=O)[C@@H](N)Cc1ccc(O)cc1)C(=O)N[C@@H](CCCNC(=N)N)C(=O)N1CCC[C@H]1C(=O)N[C@@H](CCCCN)C(=O)N[C@@H](CC(C)C)C(=O)N[C@@H](CCCCN)C(=O)O`
-0.272

Name the value of activation reported for `CC(C)C[C@H](NC(=O)[C@H](Cc1ccccc1)NC(=O)CNC(=O)CNC(=O)[C@@H](N)Cc1ccc(O)cc1)C(=O)N[C@@H](CCCN=C(N)N)C(=O)N[C@@H](CCCN=C(N)N)C(=O)N[C@@H](CCC(N)=O)C(=O)N[C@@H](Cc1ccccc1)C(=O)N[C@@H](CCCCN)C(=O)N[C@H](C(=O)N[C@H](C(=O)N[C@H](C(=O)O)[C@@H](C)O)C(C)C)C(C)C` when tested on CCR5 (Homo sapiens).
0.97

State activation on CCR5 (Homo sapiens). Entry: `CC(C)C[C@H](NC(=O)[C@H](CCCCN)NC(=O)[C@H](CCCN=C(N)N)NC(=O)[C@H](C)NC(=O)[C@H](CO)NC(=O)[C@H](CCCCN)NC(=O)[C@H](CCCN=C(N)N)NC(=O)[C@H](C)NC(=O)CNC(=O)[C@@H](NC(=O)[C@H](Cc1ccccc1)NC(=O)CNC(=O)CNC(=O)[C@@H](N)Cc1ccccc1)[C@@H](C)O)C(=O)N[C@@H](C)C(=O)N[C@@H](CC(N)=O)C(=O)N[C@@H](CCC(N)=O)C(=O)O`
1.59

Please report activation with CCR5 (Homo sapiens) for item `CC[C@H](C)[C@H](NC(=O)[C@H](CCCNC(=N)N)NC(=O)[C@H](CCCNC(=N)N)NC(=O)[C@H](CC(C)C)NC(=O)[C@H](Cc1ccccc1)NC(=O)CNC(=O)CNC(=O)[C@@H](N)Cc1ccc(O)cc1)C(=O)N[C@@H](CCCNC(=N)N)C(=O)N1CCC[C@H]1C(=O)N[C@@H](CCCCN)C(=O)N[C@@H](CC(C)C)C(=O)N[C@@H](CCCCN)C(=O)N[C@@H](Cc1c[nH]c2ccccc12)C(=O)N[C@@H](CC(=O)O)C(=O)N[C@@H](CC(N)=O)C(=O)N[C@@H](CCC(N)=O)C(=O)O` .
2.19

Give reported activation for NC(=O)[C@H](Cc1ccccc1)NC(=O)[C@H](Cc1c[nH]c2ccccc12)NC(=O)[C@@H]1CCCN1C(=O)[C@@H](N)Cc1ccc(O)cc1 [Endomorphin-1] (CCR5 (Homo sapiens))
0.726

Write down measured activation (CCR5 (Homo sapiens)) for this compound. `CSCC[C@H](NC(=O)[C@H](Cc1ccccc1)NC(=O)CNC(=O)CNC(=O)[C@@H](N)Cc1ccc(O)cc1)C(=O)N[C@@H](CCCNC(=N)N)C(=O)N[C@@H](CCCNC(=N)N)C(=O)N[C@H](C(N)=O)C(C)C`
0.166

Answer briefly: activation recorded on CCR5 (Homo sapiens) for C[C@H](NC(=O)CNC(=O)[C@@H](NC(=O)[C@H](Cc1ccccc1)NC(=O)CNC(=O)CNC[C@@H](N)Cc1ccccc1)[C@@H](C)O)C(=O)N[C@@H](CCCNC(=N)N)C(=O)N[C@@H](CCCCN)C(=O)N[C@@H](CO)C(=O)N[C@@H](C)C(=O)N[C@@H](CCCNC(=N)N)C(=O)N[C@@H](CCCCN)C(N)=O [FG Nociceptin 1-13] (H-[X1]GFTGARKSARK-NH2)
-0.325
